B1: KRT13 (parent)
chain: YGGGLGGGFGGGFAGGFVDFGACD

# Variants of: B1
# EXPERIMENT NOTES: protein stability index of a GFP-peptide fusion (GPS, HEK-293T) (PSI 1-6); higher = more stable;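 further: lentivirally expressed fusions sorted by FACS into six bins by GFP to DsRed ratio, PSI derived from sequencing read proportions per bin multiplied by bin number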
# ASSAY SETUP: c terminus: a fixed tail appended
Rule: protein stability index under 2 gives not met, otherwise met.

Use these answered entries as a reference point.
| INPUT SEQUENCE | CLASS ASSIGNMENT |
| --- | --- |
| YGGGLGGGFGGGFAGGMVDFGACD [F17M] | met |
| YGGGLGGVFGGGFAGGFVDFGACD [G8V] | met |
| YGGALGGGFGGGFAGGFVDFGACD [G4A] | not met |
| YGGGLGGGFGGGFANGFVDFGACD [G15N] | met |
| YGGGLGGGFGGGFAGGFVDFGAYD [C23Y] | not met |

Decide: is the reported value of protein stability index for YGGGLGLGFGGGFAGGFVDFGACD [G7L] equal to or greater than 2?
not met

Check this variant for protein stability index at or above 2: YGGGLGGGFGGGFAGGFVDFGPCD [A22P]
met

Could you tell me if the measured protein stability index of YGGGLGGGFGGGFASGFVDFGACD [G15S] reaches 2 or more?
not met

Is protein stability index at least 2? Consider YGGGLGGGFGGGFVGGFVDFGACD [A14V]
not met

Kindly determine if protein stability index recorded for YGYGLGGGFGGGFAGGFVDFGACD [G3Y] is above or exactly 2.
not met
